Molecular target: 3-hydroxy-3-methylglutaryl-coenzyme A reductase (Homo sapiens) (UniProt P04035)
Sequence (P04035 whole entry): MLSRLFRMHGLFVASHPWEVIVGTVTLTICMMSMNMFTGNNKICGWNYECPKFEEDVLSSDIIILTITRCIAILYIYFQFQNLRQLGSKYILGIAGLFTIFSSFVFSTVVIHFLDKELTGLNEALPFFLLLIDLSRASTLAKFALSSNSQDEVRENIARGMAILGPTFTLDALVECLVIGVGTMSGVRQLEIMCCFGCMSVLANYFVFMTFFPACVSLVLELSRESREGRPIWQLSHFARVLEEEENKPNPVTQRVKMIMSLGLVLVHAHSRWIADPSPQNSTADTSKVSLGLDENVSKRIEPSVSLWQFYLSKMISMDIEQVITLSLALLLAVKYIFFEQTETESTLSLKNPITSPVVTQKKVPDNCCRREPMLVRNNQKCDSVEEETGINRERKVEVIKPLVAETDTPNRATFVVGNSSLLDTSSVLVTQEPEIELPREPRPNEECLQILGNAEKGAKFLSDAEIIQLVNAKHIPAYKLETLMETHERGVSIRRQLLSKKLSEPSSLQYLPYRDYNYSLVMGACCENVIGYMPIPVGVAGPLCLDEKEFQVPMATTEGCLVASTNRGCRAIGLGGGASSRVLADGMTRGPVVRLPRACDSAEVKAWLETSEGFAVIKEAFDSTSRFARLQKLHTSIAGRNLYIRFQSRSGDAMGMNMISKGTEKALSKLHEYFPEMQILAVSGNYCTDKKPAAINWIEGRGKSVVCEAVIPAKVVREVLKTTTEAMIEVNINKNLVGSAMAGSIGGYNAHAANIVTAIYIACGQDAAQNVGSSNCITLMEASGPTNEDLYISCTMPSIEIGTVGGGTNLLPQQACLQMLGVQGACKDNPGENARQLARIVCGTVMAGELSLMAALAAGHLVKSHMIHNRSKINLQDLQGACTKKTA
Assay: Induction of human HMGCR-dCat-ELuc degradation expressed in HEK293 cells assessed as reduction in luciferase activity after 4 hrs by luciferase reporter assay
Assay type: cell-based
Calls of active or inactive are those of the source. No cut-off for these calls is given here.
I would appreciate it if you answered using one of these outcomes: TRUE (active), FALSE (inactive)

[[record]]
smiles_record = "C[C@H](CCCC(C)(C)O)[C@H]1CC[C@H]2[C@@H]3C[C@@H](O)[C@@]4(O)C[C@@H](O)CC[C@]4(C)[C@H]3CC[C@]12C"
assigned_label = "TRUE"


Task item: Given CC(C)CCC[C@@H](C)[C@H]1CC[C@@]2(C)C3=C(C(=O)C[C@]12C)[C@@]1(C)CC[C@H](O)C(C)(C)[C@@H]1CC3=O , state the outcome it received in this test.
Reply: TRUE

Task item: What classification did CC(C)CCC[C@@H](C)[C@H]1CC[C@H]2[C@@H]3CC=C4C(C)(C)[C@@H](O)CC[C@]4(C)[C@H]3CC[C@]12C end up with in this test?
Reply: FALSE

Task item: Hi, do you know how C[C@H](CCCC(C)(C)O)[C@H]1CC[C@@]2(C)C3=C(CC[C@]12C)[C@@]1(C)CC[C@H](O)C(C)(C)[C@@H]1CC3 came out in this test?
Reply: TRUE

Task item: Call for entry CC(C)CCC[C@@H](C)[C@H]1CC[C@H]2[C@@H]3C[C@@H](O)[C@@]4(O)C[C@@H](O)CC[C@]4(C)[C@H]3CC[C@]12C :
Reply: TRUE

Task item: Could you check what this test reported for C[C@H](CCCO)[C@H]1CC[C@@]2(C)C3=C(CC[C@]12C)[C@@]1(C)CC[C@H](O)C(C)(C)[C@@H]1CC3 ?
Reply: TRUE
